# assay.system: Tyrosyl-tRNA synthetase, putative (Trypanosoma cruzi (strain CL Brener))
# Sequence (whole entry): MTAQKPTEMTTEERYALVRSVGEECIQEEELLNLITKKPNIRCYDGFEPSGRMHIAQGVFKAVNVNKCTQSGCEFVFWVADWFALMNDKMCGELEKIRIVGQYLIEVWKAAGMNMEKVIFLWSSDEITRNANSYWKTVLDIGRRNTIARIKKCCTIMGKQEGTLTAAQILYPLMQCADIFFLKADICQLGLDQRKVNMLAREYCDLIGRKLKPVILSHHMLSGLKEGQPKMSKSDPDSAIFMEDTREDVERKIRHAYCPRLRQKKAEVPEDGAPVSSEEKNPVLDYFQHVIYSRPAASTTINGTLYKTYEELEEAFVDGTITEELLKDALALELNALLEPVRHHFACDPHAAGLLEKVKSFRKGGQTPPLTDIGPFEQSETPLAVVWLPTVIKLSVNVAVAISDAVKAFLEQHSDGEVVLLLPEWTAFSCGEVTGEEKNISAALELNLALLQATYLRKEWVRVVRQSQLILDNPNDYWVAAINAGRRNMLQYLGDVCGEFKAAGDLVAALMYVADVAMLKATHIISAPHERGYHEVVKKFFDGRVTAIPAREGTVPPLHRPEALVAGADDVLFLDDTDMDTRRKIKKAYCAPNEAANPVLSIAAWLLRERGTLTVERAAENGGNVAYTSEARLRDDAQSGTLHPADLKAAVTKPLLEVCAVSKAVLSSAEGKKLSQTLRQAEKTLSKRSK
# procedure.text: Trypanosoma cruzi tyrosyl tRNA synthetase (TcYRS) _High Tyrosine SOP
# Assay type: functional
# Design: scale not given: in the data most compounds retested in dose-response had high values
# condition.summary: 30 µM
A collection of compounds and their measured Percent Effect
Could you give me the number in %? Just the number is fine.

- compound: "O=C(Cc1ccsc1)N1CCC(n2nc(-c3ccco3)ccc2=O)CC1"
  endpoint.value: 9.68

Entry CCn1ccnc1CN1CCN(CCOc2ccccc2OC)CC1 has what Percent Effect?
0.49

Entry CSCC(C)(O)CNC(=O)c1cc(Br)ccc1Cl (stereo not drawn) has what Percent Effect?
3.23

Entry Cc1ccc(CNC(C)c2ccc3[nH]c(=O)[nH]c3c2)s1 (stereo not drawn) has what Percent Effect?
2.46

Entry CC(=O)N1CCC2(CC1)CC[C@@]1(C(=O)N(C)C)CN(S(C)(=O)=O)C[C@@H]21 has what Percent Effect?
3.23

Entry O=C(C1=CCCC1)N1CCO[C@H]2[C@@H](Oc3ccccn3)CC[C@@H]21 has what Percent Effect?
7.45

Entry Cc1c(C(=O)NC(C)C(C)C)nnn1-c1cccc2c1CCN(C)C2 (stereo not drawn) has what Percent Effect?
3.19

Entry NC(=O)C1CCCN(C(=O)c2cnc3c(cnn3C3CCCC3)c2)C1 (stereo not drawn) has what Percent Effect?
6.4

Entry Cc1nnc2n1CCN(CCC(=O)Nc1sccc1C#N)C2 has what Percent Effect?
6.4

Entry CCc1nc2n(n1)CC(NCc1nc(C)ccc1O)CC2 (stereo not drawn) has what Percent Effect?
0

Entry Cc1cnn(C2CCCN(C(=O)C3=NN(C)C(=O)CC3)C2)c1 (stereo not drawn) has what Percent Effect?
8.37

Entry CC(O)CC(C)(C)CNC(=O)NCc1cccc(-n2cncn2)c1 (stereo not drawn) has what Percent Effect?
0

---

# assay.system: Proteasome subunit beta (Trypanosoma cruzi) (UniProt O96673)
# Sequence (O96673 as listed by the source): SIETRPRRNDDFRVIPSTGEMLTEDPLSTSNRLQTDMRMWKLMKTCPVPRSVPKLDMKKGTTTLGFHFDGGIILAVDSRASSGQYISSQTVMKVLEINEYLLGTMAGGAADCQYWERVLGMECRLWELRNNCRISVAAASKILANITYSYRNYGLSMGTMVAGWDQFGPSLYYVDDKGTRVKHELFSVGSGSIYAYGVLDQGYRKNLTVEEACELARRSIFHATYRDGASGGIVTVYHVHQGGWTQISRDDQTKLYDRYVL
# procedure.text: Trypanosoma cruzi proteasome chymotrypsin-like activity (TcProtChymo) assay.
# Type: functional
# Set-up: scale not given: in the data most compounds retested in dose-response had high values
# condition.summary: 9.37 µM
A collection of compounds and their measured Percent Effect
Could you give me the number in %? Just the number is fine.

- compound: "CC(=O)c1cccc(OCCCC(=O)N(C)Cc2ccccn2)c1"
  Percent Effect, %: 10.5
- compound: "CCn1cnnc1CNC(=O)N1CCN(c2cccc(OC)c2)CC1"
  Percent Effect, %: 12.3
- compound: "CCc1ccccc1-n1nnc(C(=O)O)c1-c1ccccn1"
  Percent Effect, %: 23.5
- compound: "COC(=O)CNC(=O)CSCc1nc(O)c2cc(C(C)C)sc2n1"
  Percent Effect, %: 7.58
- compound: "Cc1cnn(CC2CN(Cc3nc4ccccc4nc3C)CCO2)c1 (centres undefined)"
  Percent Effect, %: 7.52
- compound: "Cc1ncsc1CN1CC[C@H]2OCC[C@@]2(C(=O)NC(C)C)C1"
  Percent Effect, %: 0.87
- compound: "CC(C)OCc1ncn2c1CN(Cc1ccc(F)cc1)CCC2"
  Percent Effect, %: 22
- compound: "COCCN1CCC(CNC(=O)C2(c3cccc(C)c3)CC2)CC1"
  Percent Effect, %: 0.172
- compound: "COCCCN1CCCN(C(C)C(=O)Nc2cccc(I)c2)CC1 (centres undefined)"
  Percent Effect, %: 15.1
- compound: "O=C(c1ccnnc1)N1C[C@H](Oc2cccnc2)[C@H]2OCCC[C@H]21"
  Percent Effect, %: 4.65

Entry Cc1cnn(CCNCc2ccc(OCc3csc(C)n3)cc2)c1 has what Percent Effect?
8.54

Entry CC(C)c1ccc(OCn2ccc(C(=O)N3CCCC3)n2)cc1 has what Percent Effect?
12.5

Entry CN1CCCC1CNC(=O)c1nnn(-c2ccc(F)cc2)c1C1CC1 (centres undefined) has what Percent Effect?
8.2

Entry CNC(=O)c1cc2c(nc1NC(C)C)CCN(C(=O)NC(C)C)CC2 has what Percent Effect?
-2.83

Entry O=C(c1ccsc1)N1CCOC2(CCN(Cc3cccnc3)CC2)C1 has what Percent Effect?
8.38

Entry CSCC(CCO)NC(=O)Nc1cc(Br)ccc1C (centres undefined) has what Percent Effect?
15.6

Entry Cn1cnnc1S(=O)(=O)C1CCN(S(=O)(=O)c2c(Cl)cccc2Cl)CC1 has what Percent Effect?
4.97

Entry O=C(Cn1nc2c(cc1=O)CSCC2)NC(Cc1ccccc1)C(=O)O (centres undefined) has what Percent Effect?
15

---

# assay.system: Tyrosyl-tRNA synthetase, putative (Trypanosoma cruzi (strain CL Brener)) (UniProt Q4DSP6)
# procedure.text: Trypanosoma cruzi tyrosyl tRNA synthetase (TcYRS) _High Tyrosine SOP
# Type: functional
# Set-up: scale not given: in the data most compounds retested in dose-response had high values
# condition.summary: 30 µM
A collection of compounds and their measured Percent Effect
Could you give me the number in %? Just the number is fine.

Example entries begin here.
- compound: "COc1cc2ncn(CC(=O)NCCCN(C)C)c(=O)c2cc1OC"
  outcome.measure: "Percent Effect"
  endpoint.value: 4.23
- compound: "CC(C)(C)NC(=O)CN1CCN(C(=O)Nc2ccc(F)cc2F)CC1"
  outcome.measure: "Percent Effect"
  endpoint.value: 3.12

Entry CC(C)NC(=O)COc1nc(C(C)(C)C)no1 has what Percent Effect?
-0.529

Entry Cc1ccc(CN2CC(C(=O)Nc3ccccc3)C3(CCOCC3)C2)s1 (centres undefined) has what Percent Effect?
3.12

Entry OC(CN1CCCCCCC1)c1ccc(F)cc1 (centres undefined) has what Percent Effect?
7.35

Entry COc1ccc(Oc2cncc(C3CCCN3C(C)=O)n2)cc1 (centres undefined) has what Percent Effect?
0

Entry Cc1cnn(CCC(=O)N2CCOC(c3nc(C(C)(C)C)n[nH]3)C2)c1 (centres undefined) has what Percent Effect?
-1.05

Entry Cc1cnn(CC2CN(Cc3nc(-c4ccoc4)no3)CCO2)c1 (centres undefined) has what Percent Effect?
3.45

Entry O=C(Cn1ccc2ccc(Br)cc21)NCc1ccc(C(=O)O)cc1 has what Percent Effect?
-10.6

Entry CC1(C)CC(N(Cc2ccccc2)Cc2cccnc2)CC(C)(C)N1 has what Percent Effect?
6.45

Entry CC(C)c1ccc(OCn2ccc(C(=O)N3CCCC3)n2)cc1 has what Percent Effect?
3.23

Entry CCN(CC)C(=O)Cn1ccc2cc(NC(=O)C3CCCO3)ccc21 (centres undefined) has what Percent Effect?
6.37

Entry Cc1nc(CN2CCOC(Cn3cncn3)C2)nc2ccccc12 (centres undefined) has what Percent Effect?
5.71

Entry CCCNC(=O)c1cc2c(nc1O)CCC(C)C2 (centres undefined) has what Percent Effect?
6.35

Entry CC(C)c1nccn1C1CCCN(C(=O)c2ccnc(N(C)C)c2)C1 (centres undefined) has what Percent Effect?
1.91

Entry O=C(CCCc1cn[nH]c1)N1C[C@@H](CN2CCOCC2)[C@@H](CO)C1 has what Percent Effect?
0

Entry Cc1nc(C)c(CC(=O)N2C[C@H]3CC[C@@H]2CN(C(=O)N(C)C)C3)c(=O)[nH]1 has what Percent Effect?
-1.07

Entry O=C(NCc1cnc2n1CCN(c1ncc(F)cn1)CC2)C1CCC1 has what Percent Effect?
4.3

Entry N#CCSCCCN1CCCN(C(=O)c2ccccc2)CC1 has what Percent Effect?
1.04

Entry Cc1c[nH]c(CN(C)c2nc(C3CCCC3)nc3c2cnn3C)n1 has what Percent Effect?
0

Entry Cc1nc(C2CCCN(C(=O)c3cc(Cl)c[nH]3)C2)no1 (centres undefined) has what Percent Effect?
5.42

Entry Cc1cnc(CN(Cc2ccccc2)CC(O)c2cccs2)cn1 (centres undefined) has what Percent Effect?
-3.23

Entry CSCc1cccc(S(=O)(=O)NCCCN2CCOCC2)c1 has what Percent Effect?
4.3

Entry COC(=O)c1cccc(C(=O)N2CCN(c3cccc(C)c3C)CC2)n1 has what Percent Effect?
2.12
